Test: Half life in rat
Assay type: ADME, organism-based
Settings: in vivo
resultType: half-life (h)
# unit: h | format: bare number

Recorded half-life (compound CCn1ncnc1COc1nn2c(-c3ccccc3F)nnc2cc1C(C)(C)C ): 1.4

###

Target: GABA-A receptor; alpha-2/beta-3/gamma-2 (Homo sapiens, UniProt P18507+P28472+P47869)
Sequence (P18507 whole entry): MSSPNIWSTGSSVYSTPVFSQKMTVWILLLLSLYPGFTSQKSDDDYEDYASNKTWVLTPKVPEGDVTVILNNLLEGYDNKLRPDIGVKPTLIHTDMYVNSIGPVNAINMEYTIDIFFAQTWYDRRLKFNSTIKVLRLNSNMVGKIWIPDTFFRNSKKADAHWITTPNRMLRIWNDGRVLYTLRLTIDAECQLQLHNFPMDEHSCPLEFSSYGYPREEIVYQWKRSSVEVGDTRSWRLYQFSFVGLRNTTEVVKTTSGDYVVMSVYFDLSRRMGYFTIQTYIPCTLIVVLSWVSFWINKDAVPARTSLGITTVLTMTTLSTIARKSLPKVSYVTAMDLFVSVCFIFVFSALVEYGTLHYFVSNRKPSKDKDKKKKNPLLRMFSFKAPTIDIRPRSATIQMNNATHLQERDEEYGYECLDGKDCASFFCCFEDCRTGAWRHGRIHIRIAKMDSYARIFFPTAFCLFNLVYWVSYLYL
Sequence (P28472 whole entry): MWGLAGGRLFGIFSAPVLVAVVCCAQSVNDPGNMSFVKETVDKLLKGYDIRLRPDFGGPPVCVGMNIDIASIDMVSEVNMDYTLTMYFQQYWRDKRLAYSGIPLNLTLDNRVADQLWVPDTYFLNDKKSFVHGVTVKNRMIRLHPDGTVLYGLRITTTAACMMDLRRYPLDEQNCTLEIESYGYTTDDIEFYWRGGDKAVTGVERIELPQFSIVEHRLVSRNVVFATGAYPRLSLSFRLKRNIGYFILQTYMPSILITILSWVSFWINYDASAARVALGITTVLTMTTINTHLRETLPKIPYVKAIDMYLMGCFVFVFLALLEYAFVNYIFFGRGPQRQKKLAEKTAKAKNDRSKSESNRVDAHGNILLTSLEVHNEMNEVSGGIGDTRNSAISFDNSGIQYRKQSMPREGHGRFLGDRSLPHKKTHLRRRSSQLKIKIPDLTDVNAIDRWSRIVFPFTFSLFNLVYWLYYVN
Sequence (P47869 whole entry): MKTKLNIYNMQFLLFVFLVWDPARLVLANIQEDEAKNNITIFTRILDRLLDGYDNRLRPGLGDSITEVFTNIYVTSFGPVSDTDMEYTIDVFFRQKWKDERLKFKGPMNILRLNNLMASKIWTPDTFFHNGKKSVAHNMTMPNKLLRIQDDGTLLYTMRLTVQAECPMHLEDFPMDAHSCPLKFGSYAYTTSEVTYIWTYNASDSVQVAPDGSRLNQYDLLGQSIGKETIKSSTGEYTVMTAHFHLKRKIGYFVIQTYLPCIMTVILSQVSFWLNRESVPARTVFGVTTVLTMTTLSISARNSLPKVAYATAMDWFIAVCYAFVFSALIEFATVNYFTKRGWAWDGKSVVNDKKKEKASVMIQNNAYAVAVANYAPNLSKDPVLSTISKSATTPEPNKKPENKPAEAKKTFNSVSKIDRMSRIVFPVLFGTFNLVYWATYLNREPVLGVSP
Assay: Displacement of [3H]Ro 15-1788 from human recombinant GABAA alpha-2-beta-3-gamma-2 receptor expressed in L(tk-) cells
resultType: pKi
Convention used: pKi is expressed as -log10 of the molar concentration.

The compound identified as Cn1ncnc1COc1nn2c(-c3ccccc3)nnc2cc1C1CCCCC1 registered its pKi at 7.85

Summary for this compound, Cn1ncnc1COc1nn2c(-c3ccccc3)nnc2cc1C1CCCC1 : pKi is 9.14

Cn1ncnc1COc1nn2c(-c3ccccc3)nnc2cc1-c1ccccc1 has a reported pKi of 8.59

pKi recorded for this compound, c1ccc(-c2cc3nnc(-c4ccccc4)n3nc2OCc2ccccn2)cc1 , is 8.54

For record CCn1ncnc1COc1nn2c(-c3ccccc3F)nnc2cc1C(C)(C)C the listed pKi is 9.51

The recorded pKi for entry Cn1ncnc1COc1nn2c(-c3ccccc3)nnc2cc1C1CCC1 equals 9.60
